Values were extracted from PubChem BioAssay (NCATS).

# Test system: DIV17
# protocol_details: qHTS profiling for inhibitors of Plasmodium falciparum proliferation (AID 504749); further: nearly all actives have a fitted effect of over 60% in size
# condition_info: P. falciparum in erythrocytes, SYBR Green DNA, 72 h; series mostly up to 28.7 µM
Records with an inconclusive call do not appear. The source made the active and inactive calls. The call rests on the fitted dose curve; in most records, active means well fitted inhibition curve with a large enough effect; inconclusive means small, poorly fitted or top-dose-only effect; inactive means flat fitted curve, though single readings scatter.
I would appreciate it if you answered using one of these outcomes: 1 (active), -1 (inactive)

Consider the following illustrative entries.
[
  {
    "molecule": "CCc1cccc(CC)c1NC(=O)CN(CC(=O)O)CC(=O)O",
    "assigned_category": -1
  },
  {
    "molecule": "CC(CSC(=O)c1ccccc1)C(=O)N1C[C@@H](Sc2ccccc2)C[C@H]1C(=O)O (some centres not stated)",
    "assigned_category": -1
  },
  {
    "molecule": "CN(C(=O)c1c(O)c2ccccc2n(C)c1=O)c1ccccc1",
    "assigned_category": -1
  },
  {
    "molecule": "c1ccc2[nH]ccc2c1",
    "assigned_category": -1
  },
  {
    "molecule": "NCC1CCC(C(=O)Oc2ccc(CCC(=O)O)cc2)CC1 (configuration not stated)",
    "assigned_category": -1
  },
  {
    "molecule": "CCCC(O)C(CC)CO (configuration not stated)",
    "assigned_category": -1
  }
]

Ask | For this molecule, state the assay outcome: "COc1ccc2cc(CCC(C)=O)ccc2c1"
Reply | -1

Ask | For this molecule, state the assay outcome: "CCOC(N)=O"
Reply | -1

Ask | For this molecule, state the assay outcome: "NS(=O)(=O)c1cc2c(cc1C(F)(F)F)NCNS2(=O)=O"
Reply | -1

Ask | For this molecule, state the assay outcome: "O=c1[nH]c2cc(C(F)(F)F)c(N3CCOCC3)cc2n(CP(=O)(O)O)c1=O"
Reply | -1

Ask | For this molecule, state the assay outcome: "CNCc1ccccc1"
Reply | -1

Ask | For this molecule, state the assay outcome: "Nc1c2c(nc3c1CCC3)CCCC2"
Reply | 1

Ask | For this molecule, state the assay outcome: "NC(=O)NS(=O)(=O)c1ccc(N)cc1"
Reply | -1

Ask | For this molecule, state the assay outcome: "NNc1nnc(NN)c2ccccc12"
Reply | -1

Ask | For this molecule, state the assay outcome: "C=CCNC(N)=S"
Reply | -1

Ask | For this molecule, state the assay outcome: "CCOC(=O)c1cccnc1"
Reply | -1

====

# protocol_details: Cell Viability - LYMP2-026 (AID 989);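 further: cells exposed to compound for 24 h at 37 °C; on the % scale 0 is the no-effect control and ±100 the full control effect; nearly all actives have a fitted effect of over 50% in size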
# condition_info: LYMP2-026 lymphoblastoid cell viability, qHTS; series mostly up to 92.2 µM
Results filed as inconclusive are left out. Calls of active or inactive are those of the source. Calls follow the shape of the dose curve; as a rule, active = well fitted cell-killing curve with a large enough effect; inconclusive = small, poorly fitted or top-dose-only effect; inactive = flat fitted curve, though single readings scatter.
property_label: outcome

Before answering, review these 8 worked examples.
[
  {
    "molecule": "O=C(O)CCCCC1CCSS1 (stereo not drawn)",
    "property_label": "outcome",
    "result": "inactive"
  },
  {
    "molecule": "Cc1cc(=O)[nH]c(=S)[nH]1",
    "property_label": "outcome",
    "result": "inactive"
  },
  {
    "molecule": "CCCCOC(=O)c1ccc(N)cc1",
    "property_label": "outcome",
    "result": "inactive"
  },
  {
    "molecule": "CCCC(O)C(CC)CO (stereo not drawn)",
    "property_label": "outcome",
    "result": "inactive"
  },
  {
    "molecule": "Cc1c(N(C)C)c(=O)n(-c2ccccc2)n1C",
    "property_label": "outcome",
    "result": "inactive"
  },
  {
    "molecule": "O=C1C(c2[nH]c3ccccc3c2O)=Nc2ccccc21",
    "property_label": "outcome",
    "result": "inactive"
  },
  {
    "molecule": "O=C(c1ccccc1)C(O)c1ccccc1 (stereo not drawn)",
    "property_label": "outcome",
    "result": "inactive"
  },
  {
    "molecule": "CC1CC(OC(=O)c2ccccc2O)CC(C)(C)C1 (stereo not drawn)",
    "property_label": "outcome",
    "result": "inactive"
  }
]

Turning to the following molecule.
# outcome (molecule: "O=C1c2cccc(O)c2C(=O)c2c(O)cccc21" ) is inactive

====

# protocol_details: qHTS of pediatric cancer cell lines to identify multiple opportunities for drug repurposing: Primary screen for Rh18 cells (AID 1347102); further: on the % scale 0 is the no-effect control and ±100 the full control effect; nearly all actives have a fitted effect of over 65% in size
# condition_info: Rh18 rhabdomyosarcoma viability, CellTiter-Glo luminescence, 48 h; series mostly up to 46 µM
# Protocol: Drug repurposing or repositioning has been offered as a strategy for drug development in oncology programs. […] [1] Shen, M et al. Quantitative high-throughput phenotypic screening of pediatric cancer cell lines identifies multiple opportunities for drug repurposing. […] Cells were assayed in growth media at a density of 500-1,000 cells/well. […] After a 15 min incubation at room temperature, samples were analyzed for luminescence intensity using a ViewLux High-throughput CCD imager equipped with clear filters.
Results filed as inconclusive are left out. Calls of active or inactive are those of the source. Calls follow the shape of the dose curve; as a rule, active = well fitted cell-killing curve with a large enough effect; inconclusive = small, poorly fitted or top-dose-only effect; inactive = flat fitted curve, though single readings scatter.
property_label: activity change, negative = cytotoxic

Before answering, review these 10 worked examples.
[
  {
    "molecule": "NS(=O)(=O)c1cc(-c2nn[nH]n2)c(NCc2cccs2)cc1Cl",
    "activity change, negative = cytotoxic": "inactive"
  },
  {
    "molecule": "COc1cc(O)cc(O)c1",
    "activity change, negative = cytotoxic": "inactive"
  },
  {
    "molecule": "O=C(O)Cc1cn(-c2ccccc2)nc1-c1ccc(Cl)cc1",
    "activity change, negative = cytotoxic": "inactive"
  },
  {
    "molecule": "Cc1c(N(C)C)c(=O)n(-c2ccccc2)n1C",
    "activity change, negative = cytotoxic": "inactive"
  },
  {
    "molecule": "CCOc1cc(NC(C)=O)ccc1C(=O)OC",
    "activity change, negative = cytotoxic": "inactive"
  },
  {
    "molecule": "OCCN1C[C@H](O)[C@@H](O)[C@H](O)[C@H]1CO",
    "activity change, negative = cytotoxic": "inactive"
  },
  {
    "molecule": "Cc1ccsc1C(=CCCN1CCC[C@@H](C(=O)O)C1)c1sccc1C",
    "activity change, negative = cytotoxic": "inactive"
  },
  {
    "molecule": "CC(C)=CCC[C@@](C)(O)[C@H]1CC=C(C)CC1",
    "activity change, negative = cytotoxic": "inactive"
  },
  {
    "molecule": "O=C(NCC(O)CO)c1c(I)c(C(=O)NCC(O)CO)c(I)c(N(CCO)C(=O)CO)c1I (configuration not stated)",
    "activity change, negative = cytotoxic": "inactive"
  },
  {
    "molecule": "COc1nccnc1NS(=O)(=O)c1ccc(N)cc1",
    "activity change, negative = cytotoxic": "inactive"
  }
]

# activity change, negative = cytotoxic (molecule: "CCOc1ccc(C(=O)OCCN(CC)CC)cc1" ) is inactive

# activity change, negative = cytotoxic (molecule: "COC(=O)c1cccnc1" ) is inactive

====

# assayed_system: Retinoic acid receptor RXR-alpha (Homo sapiens) (UniProt P19793)
# Sequence (P19793 whole entry, looked up): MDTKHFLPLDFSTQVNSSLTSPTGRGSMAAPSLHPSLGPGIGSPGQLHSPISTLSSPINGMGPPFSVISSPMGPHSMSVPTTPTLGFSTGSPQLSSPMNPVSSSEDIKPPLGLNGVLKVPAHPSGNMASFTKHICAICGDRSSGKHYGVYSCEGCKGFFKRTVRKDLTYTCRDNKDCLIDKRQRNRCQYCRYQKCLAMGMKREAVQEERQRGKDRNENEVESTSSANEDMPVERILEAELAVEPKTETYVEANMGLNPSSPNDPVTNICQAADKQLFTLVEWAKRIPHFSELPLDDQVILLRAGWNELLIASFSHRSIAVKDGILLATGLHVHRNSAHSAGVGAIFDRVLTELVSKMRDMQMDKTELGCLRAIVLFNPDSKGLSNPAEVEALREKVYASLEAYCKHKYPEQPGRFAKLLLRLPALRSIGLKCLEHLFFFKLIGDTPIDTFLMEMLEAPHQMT
# protocol_details: qHTS assay for small molecule antagonists of retinoid X receptor alpha signaling (AID 588546);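 further: cells stimulated with 9-cis-retinoic acid as agonist; on the % scale 0 is the no-effect control and ±100 the full control effect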
# condition_info: HEK293T RXRa-UAS-bla, beta-lactamase ratio, antagonist mode
Records with an inconclusive call do not appear.
property_label: max response (%)
Provide the reading as a plain figure in %.

Before answering, review these 3 worked examples.
[
  {
    "structure_as_smiles": "OC[C@@H](O)[C@@H](O)[C@H](O)[C@H](O)CO",
    "units_text": "%",
    "numeric_value": 13.9
  },
  {
    "structure_as_smiles": "Nc1ccc(S(=O)(=O)c2ccc(N)cc2)cc1",
    "units_text": "%",
    "numeric_value": -26.2
  },
  {
    "structure_as_smiles": "CCCCCCCCCCCCCCCCCCO",
    "units_text": "%",
    "numeric_value": 3.77
  }
]

# max response (compound: "CC(=O)OCC(COC(C)=O)OC(C)=O" ) is 4.6

====

# System: HEK293
# protocol_details: Cytotoxic Profiling of Annotated Libraries Using Quantitative High-Throughput Screening (AID 1296008); further: on the % scale 0 is the no-effect control and ±100 the full control effect; nearly all actives have a fitted effect of over 60% in size
# condition_info: Five cell lines viability, CellTiter-Glo ATP luminescence, 48-72 h; active compounds read low
Inconclusive results are not listed.
property_label: max response (%)
Provide the reading as a plain figure in %.

[
  {
    "molecule": "NC(=O)c1ccc([N+](=O)[O-])cc1Cl",
    "assayed_system": "HEK293",
    "max response [%]": -0.167
  },
  {
    "molecule": "COc1ccc(Cc2cnc(N)nc2N)cc1OC",
    "assayed_system": "HEK293",
    "max response [%]": 2.64
  },
  {
    "molecule": "CCOc1ccc(C(=O)OCCN(CC)CC)cc1",
    "assayed_system": "HEK293",
    "max response [%]": 1.58
  },
  {
    "molecule": "O=C1c2ccccc2C(=O)C1c1ccc(Br)cc1",
    "assayed_system": "HEK293",
    "max response [%]": -0.633
  },
  {
    "molecule": "CC(=O)Nc1ccccc1",
    "assayed_system": "HEK293",
    "max response [%]": -7.78
  }
]

# max response (molecule: "NNc1nnc(NN)c2ccccc12" ) is -11.7

# max response (molecule: FC(F)(F)C(Cl)Br (stereo not given) ) is 0.482

# max response (molecule: CCCC(O)C(CC)CO (stereo not given) ) is -1.45
